- Test system: YSK4;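 further: KINOMEscan kinase panel screen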
- Construct: gene MAP3K19
- conditions.used: concentration: 1 μM, replicates: in singlicate; n = 1
measurement.kind: %Inh (%)
Numbers only here, please. The scale is %.

CNc1cc(-c2ccc3c(N)n[nH]c3c2)nc(N)n1 [GSK2224810]: 58
Cc1ccc(NC(=O)Nc2ccc(Cl)c(C(F)(F)F)c2)cc1-c1ccc(C(=O)Nc2ccncc2)cc1 [GSK1398470]: 72
O=c1cc(N2CCOCC2)nc2n(Cc3cccc(Cl)c3Cl)c3ccccc3n12 [GSK2299009]: 3
Cc1ccc(-c2nc(Nc3ccncc3)c3ccccc3n2)s1 [GSK189015]: 0
CC(=O)c1c(C)c2cnc(Nc3ccc(N4CCNCC4)cn3)nc2n(C2CCCC2)c1=O: 10
COc1ccc(CSc2nnc(-c3ccc4c(c3)CCO4)o2)cc1: 0
COC(=O)c1cccc(NC(=O)NC2CCN(c3ccnc(Nc4ccc(OC)cc4)n3)C2)c1 (stereo not drawn) [GSK1379746]: 22
FC(F)(F)c1ccccc1-c1cc(-c2c[nH]nc2-c2ccccn2)ccn1 [GW679396]: 0

response.value for CC(=O)c1cccc(NC(=O)NC2CCN(c3ccnc(Nc4ccc(F)cc4)n3)C2)c1 (stereo not drawn) [GSK1379710] (field: %Inh) = 20

response.value for CCCCc1nn2ncccc2c1-c1ccnc(NC2CC2)n1 [GW684374] (field: %Inh) = 18

response.value for CNCc1ccc2nc(NC(=O)c3ccc(C(C)(C)C)cc3)cn2c1 (field: %Inh) = 30
